concentration at 20 min overview
method_summary: In vivo rat tracer distribution and brain uptake (LC-MS/MS)
Set-up: species or system Sprague-Dawley rats
measurement_setup: Sprague-Dawley, plasma, iv, 10 μg/kg i.v., 20 min, read-out: Mean tracer conc (plasma) ± SEM

[
  {
    "molecule": "Cc1cc(N2CC(F)C2)cc(OCc2ccc([C@@H](C)[C@@]3(C)C(=O)NC[C@@H]3C)cc2)n1 [Example 2]",
    "unit_tag": "ng/mL",
    "concentration at 20 min": 2.88
  },
  {
    "molecule": "Cc1cc(N2CCC2)cc(OCc2ccc([C@@H](C)[C@@]3(C)C(=O)NC[C@@H]3CF)cc2)n1 [Example 1]",
    "unit_tag": "ng/mL",
    "concentration at 20 min": 1.72
  },
  {
    "molecule": "Cc1cc(N2CC(F)C2)cc(OCc2ccc([C@@H](C)[C@@]3(C)C(=O)NC[C@@H]3CF)cc2)n1 [Example 3]",
    "unit_tag": "ng/mL",
    "concentration at 20 min": 1.94
  }
]

###

Documented concentration at 10 min across a set of compounds
method_summary: In vivo rat tracer distribution and brain uptake (LC-MS/MS)
Design: species or system Sprague-Dawley rats
measurement_setup: Sprague-Dawley, cerebellum, iv, 10 μg/kg i.v., 10 min, read-out: Mean tracer concentration ± SEM, Cerebellum

[
  {
    "smiles_structure": "Cc1cc(N2CC(F)C2)cc(OCc2ccc([C@@H](C)[C@@]3(C)C(=O)NC[C@@H]3CF)cc2)n1",
    "concentration at 10 min [ng/g]": 1.76
  },
  {
    "smiles_structure": "Cc1cc(N2CCC2)cc(OCc2ccc([C@@H](C)[C@@]3(C)C(=O)NC[C@@H]3CF)cc2)n1",
    "concentration at 10 min [ng/g]": 1.91
  },
  {
    "smiles_structure": "Cc1cc(N2CC(F)C2)cc(OCc2ccc([C@@H](C)[C@@]3(C)C(=O)NC[C@@H]3C)cc2)n1",
    "concentration at 10 min [ng/g]": 4.78
  }
]

###

method_summary: In vivo rat tracer distribution and brain uptake (LC-MS/MS)
Set-up: species or system Sprague-Dawley rats
measurement_setup: Sprague-Dawley, brain stem, iv, 10 μg/kg i.v., 10 min, read-out: Mean tracer concentration ± SEM, Brain Stem

[
  {
    "molecule": "Cc1cc(N2CCC2)cc(OCc2ccc([C@@H](C)[C@@]3(C)C(=O)NC[C@@H]3CF)cc2)n1 [Example 1]",
    "unit_tag": "ng/g",
    "concentration at 10 min": 2.46
  },
  {
    "molecule": "Cc1cc(N2CC(F)C2)cc(OCc2ccc([C@@H](C)[C@@]3(C)C(=O)NC[C@@H]3C)cc2)n1 [Example 2]",
    "unit_tag": "ng/g",
    "concentration at 10 min": 5.27
  },
  {
    "molecule": "Cc1cc(N2CC(F)C2)cc(OCc2ccc([C@@H](C)[C@@]3(C)C(=O)NC[C@@H]3CF)cc2)n1 [Example 3]",
    "unit_tag": "ng/g",
    "concentration at 10 min": 2.01
  }
]

###

tested_target: human CGRP receptor heterodimer (Homo sapiens, UniProt O60894+Q16602)
Construct: Human SK-N-MC neuroblastoma cells, endogenously expressing the human CGRP receptor, are expanded in culture flasks
method_summary: Competition filtration binding with [3H]BIBN-4096 on SK-N-MC cell membranes
measurement_setup: [3H]BIBN-4096 130 pM, mean
pKi: −log10 of the molar value.

[
  {
    "compound": "Cc1cc(N2CC(F)C2)cc(OCc2ccc([C@@H](C)[C@@]3(C)C(=O)NC[C@@H]3CF)cc2)n1 [Example 3]",
    "pKi": 9.03
  },
  {
    "compound": "Cc1cc(N2CC(F)C2)cc(OCc2ccc([C@@H](C)[C@@]3(C)C(=O)NC[C@@H]3C)cc2)n1 [Example 2]",
    "pKi": 9.01
  },
  {
    "compound": "Cc1cc(N2CCC2)cc(OCc2ccc([C@@H](C)[C@@]3(C)C(=O)NC[C@@H]3CF)cc2)n1 [Example 1]",
    "pKi": 9.46
  }
]

###

method_summary: In vivo rat tracer distribution and brain uptake (LC-MS/MS)
Parameters: species or system Sprague-Dawley rats
measurement_setup: Sprague-Dawley, striatum, iv, 10 μg/kg i.v., 20 min, read-out: Mean tracer concentration ± SEM, Striatum

[
  {
    "smiles_structure": "Cc1cc(N2CC(F)C2)cc(OCc2ccc([C@@H](C)[C@@]3(C)C(=O)NC[C@@H]3CF)cc2)n1",
    "concentration at 20 min, ng/g": 1.09
  },
  {
    "smiles_structure": "Cc1cc(N2CC(F)C2)cc(OCc2ccc([C@@H](C)[C@@]3(C)C(=O)NC[C@@H]3C)cc2)n1",
    "concentration at 20 min, ng/g": 2.42
  },
  {
    "smiles_structure": "Cc1cc(N2CCC2)cc(OCc2ccc([C@@H](C)[C@@]3(C)C(=O)NC[C@@H]3CF)cc2)n1",
    "concentration at 20 min, ng/g": 1.12
  }
]

###

method_summary: In vivo rat tracer distribution and brain uptake (LC-MS/MS)
Design: species or system Sprague-Dawley rats
measurement_setup: Sprague-Dawley, hippocampus, iv, 10 μg/kg i.v., 40 min, read-out: Mean tracer concentration ± SEM, Hippocampus
recorded_endpoint: concentration at 40 min (ng/g)

[
  {
    "smiles_structure": "Cc1cc(N2CCC2)cc(OCc2ccc([C@@H](C)[C@@]3(C)C(=O)NC[C@@H]3CF)cc2)n1",
    "observed_measurement": 0.33
  },
  {
    "smiles_structure": "Cc1cc(N2CC(F)C2)cc(OCc2ccc([C@@H](C)[C@@]3(C)C(=O)NC[C@@H]3C)cc2)n1",
    "observed_measurement": 0.74
  },
  {
    "smiles_structure": "Cc1cc(N2CC(F)C2)cc(OCc2ccc([C@@H](C)[C@@]3(C)C(=O)NC[C@@H]3CF)cc2)n1",
    "observed_measurement": 0.34
  }
]

###

method_summary: In vivo rat tracer distribution and brain uptake (LC-MS/MS)
Set-up: species or system Sprague-Dawley rats
measurement_setup: Sprague-Dawley, frontal cortex, iv, 10 μg/kg i.v., 40 min, read-out: Mean tracer concentration ± SEM, Frontal Cortex
The molecules listed here are annotated with their concentration at 40 min.

[
  {
    "molecule": "Cc1cc(N2CC(F)C2)cc(OCc2ccc([C@@H](C)[C@@]3(C)C(=O)NC[C@@H]3CF)cc2)n1 [Example 3]",
    "concentration at 40 min / ng/g": 0.31
  },
  {
    "molecule": "Cc1cc(N2CCC2)cc(OCc2ccc([C@@H](C)[C@@]3(C)C(=O)NC[C@@H]3CF)cc2)n1 [Example 1]",
    "concentration at 40 min / ng/g": 0.29
  },
  {
    "molecule": "Cc1cc(N2CC(F)C2)cc(OCc2ccc([C@@H](C)[C@@]3(C)C(=O)NC[C@@H]3C)cc2)n1 [Example 2]",
    "concentration at 40 min / ng/g": 0.8
  }
]

###

# maps each entry to its concentration at 5 min
method_summary: In vivo rat tracer distribution and brain uptake (LC-MS/MS)
Set-up: species or system Sprague-Dawley rats
measurement_setup: Sprague-Dawley, cerebellum, iv, 10 μg/kg i.v., 5 min, read-out: Mean tracer concentration ± SEM, Cerebellum

[
  {
    "molecule": "Cc1cc(N2CC(F)C2)cc(OCc2ccc([C@@H](C)[C@@]3(C)C(=O)NC[C@@H]3CF)cc2)n1 [Example 3]",
    "concentration at 5 min / ng/g": 3.06
  },
  {
    "molecule": "Cc1cc(N2CCC2)cc(OCc2ccc([C@@H](C)[C@@]3(C)C(=O)NC[C@@H]3CF)cc2)n1 [Example 1]",
    "concentration at 5 min / ng/g": 3.52
  },
  {
    "molecule": "Cc1cc(N2CC(F)C2)cc(OCc2ccc([C@@H](C)[C@@]3(C)C(=O)NC[C@@H]3C)cc2)n1 [Example 2]",
    "concentration at 5 min / ng/g": 8.76
  }
]

###

method_summary: In vivo rat tracer distribution and brain uptake (LC-MS/MS)
Design: species or system Sprague-Dawley rats
measurement_setup: Sprague-Dawley, striatum, iv, 10 μg/kg i.v., 10 min, read-out: Mean tracer concentration ± SEM, Striatum
Below, each of the compounds is paired with its reported concentration at 10 min value.
recorded_endpoint: concentration at 10 min

[
  {
    "smiles_structure": "Cc1cc(N2CC(F)C2)cc(OCc2ccc([C@@H](C)[C@@]3(C)C(=O)NC[C@@H]3CF)cc2)n1",
    "observed_measurement": "2.14 ng/g"
  },
  {
    "smiles_structure": "Cc1cc(N2CC(F)C2)cc(OCc2ccc([C@@H](C)[C@@]3(C)C(=O)NC[C@@H]3C)cc2)n1",
    "observed_measurement": "5.23 ng/g"
  },
  {
    "smiles_structure": "Cc1cc(N2CCC2)cc(OCc2ccc([C@@H](C)[C@@]3(C)C(=O)NC[C@@H]3CF)cc2)n1",
    "observed_measurement": "2.44 ng/g"
  }
]
